Can you tell me half-life at 5 mM for the items I'm about to list?
METHOD DESCRIPTION: Stability in simulated stomach acid (0.10 M HCl)
STUDY CONDITIONS: 0.10 M HCl (simulated stomach acid)

Field: example entries. Status: answers known.
| STRUCTURE SMILES STRING | half-life at 5 mM |
| --- | --- |
| CN(C)CCc1c[nH]c2cccc(OC(=O)C3CC3)c12.O=C(O)/C=C/C(=O)O | > 167 h |
| CN(C)CCc1c[nH]c2cccc(OC(=O)OCc3ccccc3)c12.O=C(O)/C=C/C(=O)O.O=CO | > 167 h |

Okay, next one:
Exercise: # half-life at 5 mM lookup, item `CC(=O)Oc1cccc2[nH]cc(CCN(C)C)c12.O=C(O)/C=C/C(=O)O`
Key: > 167 h

###

METHOD DESCRIPTION: Solid solubility assay, phosphate buffer pH 7.4
Format: physicochemical
STUDY CONDITIONS: phosphate buffer pH 7.4, dry substance
QUANTITY: solubility at 24 h

Exercise: solubility at 24 h lookup needed for CN(C)CCc1c[nH]c2cccc(OP(=O)(O)O)c12 [Compound 8, 4-phosphoryloxy-N,N-dimethyltryptamine, reference compound] , thanks.
Key: > 1000 µM

###

I'd appreciate it if you could supply half-life at 24 h, 5 mM values for the items below.
METHOD DESCRIPTION: Chemical stability in 1.0 M NaHCO3 and 1.0 M HCl
STUDY CONDITIONS: 1.0 M NaHCO3
Answers are plain numbers, in h.

Some solved cases for reference:
| COMPOUND | half-life at 24 h, 5 mM, h |
| --- | --- |
| CCCC(=O)Oc1cccc2[nH]cc(CCN(C)C)c12.O=C(O)/C=C/C(=O)O [Compound 4b] | 65 |
| CCOC(=O)Oc1cccc2[nH]cc(CCN(C)C)c12.O=C(O)/C=C/C(=O)O [Compound 4i] | 50 |
| COC(=O)Oc1cccc2[nH]cc(CCN(C)C)c12.O=C(O)/C=C/C(=O)O [Compound 4e] | 16.7 |

Consider the record given below.
Exercise: # half-life at 24 h, 5 mM lookup, item CCCCCCCCCCC(=O)Oc1cccc2[nH]cc(CCN(C)C)c12.O=C(O)/C=C/C(=O)O [Compound 4j]
Key: 16.7

Where these numbers come from: paper PMC11997985
